System: resveratrol
Assay: Percent conversion of substrate by E. coli cells expressing sulfotransferases
Assay type: cell-based, Escherichia coli
Settings: 95 μM resveratrol, M9 medium, overnight 37° C.
Exercise: state measured percent conversion of resveratrol for each of the molecules provided.
Unit % implied. Number only.

Find the recorded percent conversion of resveratrol belonging to SULT1A1 Sus scrofa domesticus: aryl sulfotransferase SULT1A1 Sus scrofa domesticus (SEQ ID NO: 4) (protein, listed as Sus scrofa) MEPVQDTYRPPLEYVKGVPLIKYFAEALGPLESFQAWPDDVLISTYPKSGTTWVSEILDLIYQGGDLQKCQRAPIFVRVPFLEFKIPGCPTGFELLKDTPAPRLLKTHLPLALLPQTLLDQKVKVVYVARNAKDVAVSYYHFYRMAKVHPNPGTWDSFLEDFMAGEVSYGSWYQHVQEWWELRHTHPVLYLFYEDMKENPKREIQKILEFVGRSLPEETVEDIVQHTSFQEMKNNAMTNYRTLPSDLLDHSISAFMRKGITGDWKSTFTVAQNERFEADYAEKMAGCNLRFRSEL and report it.
88

Find the recorded percent conversion of resveratrol belonging to SULT1A1 Canis lupus familiaris: aryl sulfotransferase SULT1A1 Canis lupus familiaris (SEQ ID NO: 5) (protein, listed as Canis lupus) MEDIPDTSRPPLKYVKGIPLIKYFAEALESLQDFQAQPDDLLISTYPKSGTTWVSEILDMIYQDGDVEKCRRAPVFIRVPFLEFKAPGIPTGLEVLKDTPAPRLIKTHLPLALLPQTLLDQKVKVVYVARNAKDVAVSYYHFYRMAKVHPDPDTWDSFLEKFMAGEVSYGSWYQHVQEWWELSHTHPVLYLFYEDMKENPKREIQKILKFVGRSLPEETVDLIVQHTSFKEMKNNSMANYTTLSPDIMDHSISAFMRKGISGDWKTTFTVAQNERFDADYAKKMEGCGLSFRTQL and report it.
61

Hello, the source for this data is patent US11390894B2, in case you need it.
